Target: T1, human GPRC5D (human, UniProt Q9NZD1 1-345)
T1 construct: whole, on cells; also called hGPRC5D; G-protein coupled receptor family C group 5 member D
T1 sequence (Q9NZD1 whole entry): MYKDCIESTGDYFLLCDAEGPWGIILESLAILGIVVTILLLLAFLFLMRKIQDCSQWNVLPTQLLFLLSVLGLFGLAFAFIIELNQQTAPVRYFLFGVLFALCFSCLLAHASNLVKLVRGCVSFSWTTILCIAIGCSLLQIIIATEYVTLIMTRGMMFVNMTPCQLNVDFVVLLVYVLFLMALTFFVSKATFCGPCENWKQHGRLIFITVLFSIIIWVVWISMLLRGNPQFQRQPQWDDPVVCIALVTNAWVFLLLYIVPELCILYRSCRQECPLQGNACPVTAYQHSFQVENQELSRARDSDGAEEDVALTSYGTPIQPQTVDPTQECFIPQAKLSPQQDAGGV
Test: FACS, CHOS-hGPRC5D cells
Property: EC50; scope: individual binders
ASSAY METRIC: EC50 (nM)

• ch20C4E1 (antibody, V domains shown) VH: EVRLVESGGALVRPGGSLKLSCAASGFTFSDYGMHWVRQAPEKGLEWIAFISSVSFTIYYADTVKGRFTISRDNAKNTLFLQMTSLRSEDTALYYCTRLGPHWYFDVWGTGTTVTVSS VL: DVVLTQTPLSLPVSLGDQASISCRSSQSLVYSNGNTYLHWFLQKPGQSPQLLIYKVSNRFSGVPDRFSGSGSGTDFTLKISRVEAEDLGVYFCSQSTPVPTFGGGTKLEIK = 2.83
• ch12G12C2 (antibody, V domains shown) VH: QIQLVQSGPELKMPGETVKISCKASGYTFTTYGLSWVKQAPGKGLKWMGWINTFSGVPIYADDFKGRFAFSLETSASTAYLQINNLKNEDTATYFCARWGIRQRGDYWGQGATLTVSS VL: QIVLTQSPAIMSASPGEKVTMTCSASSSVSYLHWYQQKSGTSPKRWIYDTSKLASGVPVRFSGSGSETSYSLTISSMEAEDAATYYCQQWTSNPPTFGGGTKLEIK = 4.06
• ch98A3A8 (antibody, V domains shown) VH: EVQLQQSGPELVKPGASVKMSCKASGYTFTYYVTHWVRQKPGQGLEWIGYINPYNDGTMFNEKFKGKATLTSDKSSSTAYMEFSSLTSEDSAVFYCARGGVRRYFDVWGAGTTVTVSS VL: DIQMTQSPSSLSASLGERVSLTCRASQDIGSNLNWLQQKPDGTIKRLIYATSSLDSGVPKRFSGSRSGSDYSLTINSLESEDFVDYYCLQYASFPYTFGGGTKLEIK = 1.39
